This collection of values is drawn from patent US20030039661A1.

Test system: granulocytes
ASSAY PROTOCOL: Granulocyte survival, hypodiploid nuclei by propidium iodide flow cytometry (isolated granulocytes in culture)
Assay type: cell-based
CONDITION SET: isolated granulocytes cultured at 37° C.; FIG. 6; read-out: IC50 for granulocyte survival (hypodiploid DNA)
MEASUREMENT NAME: IC50

O=C(O)CC(NC(=O)[C@@H]1Cc2cccc3c2N1C(=O)[C@@H](NC(=O)OCc1ccccc1)CC3)C(=O)CF (some centres unmarked) | < 5 µM

Now, please, on to the next compound.
*Q* Using the record for Cc1c(C(=O)N[C@H](C(=O)NC(CC(=O)O)C(=O)COC(=O)c2c(Cl)cccc2Cl)C(C)C)n(C)c2ccccc12 (some centres unmarked) , report its IC50.
*A* < 5 µM
